# Method: In vivo iontophoresis, pH control of anodic and cathodic buffer gels (Example 2)
# Parameters: species or system hairless guinea pigs
# Setup conditions: for at least 5 hours, dipeptides at their pI
Measured metric: pH control of a cathodic electrotransport formulation

Compound: O=S(=O)(O)CCCN1CCOCC1 [MOPS, 3-[N-morpholino]propanesulphonic acid, reference compound]
Result: lack of stability

Compound: O=P(O)(O)O [phosphate, phosphoric acid, reference compound]
Result: lack of stability

* * *

# Method: pKa, pI and charge distribution of buffers
# Setup conditions: fraction of dipeptide carrying a net charge in aqueous solution at pH equal to pI
Residues, ends and D or L forms follow the SMILES beside them.
Measured metric: % salt (%)
Numeric only. Scale: %

Examples from the recorded data:
Molecule: CC(C)C[C@H](NC(=O)[C@@H](N)Cc1cnc[nH]1)C(=O)O [His-Leu] (H-His-Leu-OH)
% salt, %: 22
--
Molecule: N[C@@H](Cc1cnc[nH]1)C(=O)N[C@@H](CCC(=O)O)C(=O)O [His-Glu] (H-His-Glu-OH)
% salt, %: 15
--
Molecule: NC(=O)CC[C@H](NC(=O)[C@@H](N)Cc1cnc[nH]1)C(=O)O [His-Gln] (H-His-Gln-OH)
% salt, %: 22
--
Molecule: N[C@@H](CCC(=O)O)C(=O)N[C@@H](Cc1cnc[nH]1)C(=O)O [Glu-His] (H-Glu-His-OH)
% salt, %: 5
--
Molecule: C[C@@H](O)[C@H](NC(=O)[C@@H](N)Cc1cnc[nH]1)C(=O)O [His-Thr] (H-His-Thr-OH)
% salt, %: 22
--
Molecule: NCC(=O)N[C@@H](CC(=O)O)C(=O)O [Gly-Asp] (H-Gly-Asp-OH)
% salt, %: 23
--
Molecule: CC(C)[C@H](N)C(=O)N[C@@H](Cc1cnc[nH]1)C(=O)O [Val-His] (H-Val-His-OH)
% salt, %: 34

Now consider the entry below.
Exercise: # query: % salt of entry N[C@@H](Cc1cnc[nH]1)C(=O)N[C@@H](Cc1ccc(O)cc1)C(=O)O [His-Tyr] (H-His-Tyr-OH)
Key: 22
